# Measured On: Equilibrative nucleoside transporter 1 (Homo sapiens)
# Sequence (Q99808 whole entry): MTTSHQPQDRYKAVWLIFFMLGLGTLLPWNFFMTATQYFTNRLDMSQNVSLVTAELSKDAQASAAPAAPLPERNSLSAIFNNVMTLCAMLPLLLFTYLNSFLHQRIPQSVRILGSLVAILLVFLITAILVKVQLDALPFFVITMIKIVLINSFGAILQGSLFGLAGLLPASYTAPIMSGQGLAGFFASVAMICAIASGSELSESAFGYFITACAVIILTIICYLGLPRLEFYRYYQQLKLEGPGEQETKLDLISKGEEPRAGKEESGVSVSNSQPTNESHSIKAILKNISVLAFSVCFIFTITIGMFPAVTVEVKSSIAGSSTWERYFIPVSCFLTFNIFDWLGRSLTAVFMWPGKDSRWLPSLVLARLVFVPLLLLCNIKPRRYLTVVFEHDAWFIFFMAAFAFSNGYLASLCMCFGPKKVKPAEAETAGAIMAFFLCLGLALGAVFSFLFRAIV
Readout Name: Ki (µM)

A: OC[C@H]1O[C@@H](n2cnc3c(SCc4cccc(F)c4)ncnc32)[C@H](O)[C@@H]1O
B: N#Cc1ccccc1CSc1ncnc2c1ncn2[C@@H]1O[C@H](CO)[C@@H](O)[C@H]1O
C: OC[C@H]1O[C@@H](n2cnc3c(SCc4ccccc4I)ncnc32)[C@H](O)[C@@H]1O
D: OC[C@H]1O[C@@H](n2cnc3c(SCc4ccc(Cl)cc4Cl)ncnc32)[C@H](O)[C@@H]1O
Order by Ki, ascending. Thanks in advance for listing the labels in the requested order.
D, A, C, B

I: OC[C@H]1O[C@@H](n2cnc3c(SCc4ccc(Cl)cc4)ncnc32)[C@H](O)[C@@H]1O
II: COC(=O)c1ccc(CSc2ncnc3c2ncn3[C@@H]2O[C@H](CO)[C@@H](O)[C@H]2O)cc1
III: OC[C@H]1O[C@@H](n2cnc3c(SCc4ccccc4Br)ncnc32)[C@H](O)[C@@H]1O
IV: OC[C@H]1O[C@@H](n2cnc3c(SCc4c(F)cccc4Cl)ncnc32)[C@H](O)[C@@H]1O
Number of compounds to sort: 4. Sort criterion: Ki, ascending. Thanks in advance for listing the labels in the requested order.
I, II, IV, III

====

Record set of Ki for target or system Equilibrative nucleoside transporter 1 (Homo sapiens, UniProt Q99808).
Readout Name: Ki (nM)

Smiles Record: OC[C@H]1O[C@@H](n2cnc3c(SCc4ccc(Cl)c(Cl)c4)ncnc32)[C@H](O)[C@@H]1O
Measured On: Equilibrative nucleoside transporter 1 (Homo sapiens, UniProt Q99808)
Measurement Unit: nM
Value: 12.6

1: Cc1cccc(CSc2ncnc3c2ncn3[C@@H]2O[C@H](CO)[C@@H](O)[C@H]2O)c1
2: Cc1ccccc1CSc1ncnc2c1ncn2[C@@H]1O[C@H](CO)[C@@H](O)[C@H]1O
Given 1 and given 2 , which shows the smaller recorded Ki? Refer to your chosen item by its label in the answer.
1
